molecular target: T1, wild-type human EGFR protein on the surface of cells (A431, HEB, U87MG) (human, UniProt P00533 25-1210); assay: FACS on A431 cells
T1 construct: whole, on cells; One molecule for all three cell lines; the cell line is named under assay; also called wild-type EGFR
assay_readout: binding result

- binder: "Murine anti-46C4 (antibody, V domains shown, Mouse hybridoma antibody; also called 46C4A6) VH: EVHLQQSVAELVRPGASVKLSCTASGFNIKNTYMHWVKQRPEQGLEWIGRIDPANGNTKYAPKFQGKATITADTSSNTAYLQLSSLTSEDTAIYYCASDFDYWGQGTTLTVSS VL: DVLMTQTPLSLPVSLGDQVSISCRSSQSIVNSNGNTHLEWYLQKPGQSPKVLIYKVSKRFSGVPDRFSGSGSGTDFTLKISRVEAEDLGVYYCFQGSHVPYTFGGGTKLEIK"
  assay_readout: "binding result"
  result_value: "no binding"
- binder: "Murine anti-7E5 (antibody, V domains shown, Mouse hybridoma antibody; also called 7E5-2A9; murine anti-7E5-2) VH: EIQLQQSGPELVKPGASVKVSCKASGYSFTDYNMYWVKQSHGKSLEWIGYVDPSNGGTNYNQKFKGKATLTVDKSSSTAFMHLNSLTSEDSAVYYCARGFFDYWGQGTTLTVSS VL: DIVMTQSPSSLTVTAGEKVTMSCKSSQSLLNSGNQKNYLTWYQQKPGQPPKLLIYWASNRESGVPDRFTGSGSGKDFTLTISSVQAEDLAVYYCQNDYRYPVTFGAGTKLELK"
  assay_readout: "binding result"
  result_value: "no binding"
- binder: "Murine anti-51G7 (antibody, V domains shown, Mouse hybridoma antibody; also called 51G7C2) VH: EVQLQQSGAELVKPGASVKLSCTASGFNIKDFYIHWVKQRTEQGLEWIGRIDPEDGETKYAPKFQDKATIIADTSSNTAYLQLSSLTSEDTAVYYCASSSYYGNNYWGQGTTLTVSS VL: QIVLTQSPAIMSASPGEKVTLTCSASSSVSSNYLYWYQQKPGSSPKLWIYSTSNLASGVPARFSGSGSGTSYSLTISSMEAEDAASYFCHQWSSFPYTFGGGTKLEIK"
  assay_readout: "binding result"
  result_value: "no binding"
